So I've got a bunch of compounds here, and I need their IC50 values.
System: p-CREB (phosphorylated cAMP response-element binding protein) in human whole blood
Experiment: p-CREB assay in human whole blood by flow cytometry (NECA stimulation, CD4 staining)
Type: cell-based
Conditions: Homo sapiens, values separated by / are repeat determinations
Express it in nM; write the number only.

Prompt line: What measured IC50 is associated with CCc1c(COc2nc(N)nc(-c3ccc(F)cc3)c2-c2cc(C)nc(C(F)F)c2)nnn1CC on p-CREB (phosphorylated cAMP response-element binding protein) in human whole blood?
Response line: 93.2

Prompt line: What measured IC50 is associated with CCc1c(COc2nc(N)nc(-c3ccc(F)cc3)c2-c2cc(C)nc(C(F)F)c2)nnn1C on p-CREB (phosphorylated cAMP response-element binding protein) in human whole blood?
Response line: 15.8

Prompt line: What measured IC50 is associated with Cc1cc(-c2c(OCCN(C)c3cccc(OCCO)n3)nc(N)nc2-c2ccc(F)cc2)cc(C(F)F)n1 on p-CREB (phosphorylated cAMP response-element binding protein) in human whole blood?
Response line: 41.6

Prompt line: What measured IC50 is associated with Cc1cc(-c2c(OCC3CCOCC3)nc(N)nc2-c2ccc(F)cc2)cc(C(F)F)n1 on p-CREB (phosphorylated cAMP response-element binding protein) in human whole blood?
Response line: 93
